Test: Pharmacokinetics after subcutaneous administration in dogs
Assay type: in vivo
Settings: plasma; Dog, SC, 1 mg/kg
measured-parameter: Tmax (min)
State the answer as a number, implicitly in min.

Give Tmax for CO[C@@H]1[C@H](OC(=O)N2CC(CCN3CCOCC3)C2)CC[C@]2(CO2)[C@H]1[C@@]1(C)O[C@@H]1CC=C(C)C
55

----------
Assay: Pharmacokinetics after subcutaneous administration in humans
Assay type: in vivo, Human
Settings: plasma; Human, SC, 2.4 mg
measured-parameter: AUC(0-inf) (ng·h/mL)
State the answer as a number, implicitly in ng·h/mL.

Give AUC(0-inf) for CO[C@@H]1[C@H](OC(=O)N2CC(CCN3CCOCC3)C2)CC[C@]2(CO2)[C@H]1[C@@]1(C)O[C@@H]1CC=C(C)C
8.05
